- assay_target: KRasG12C (M1-K169, biotinylated on the N-terminus) (Homo sapiens (Human), UniProt P01116, G12C)
- test_details: Covalent competition assay: scintillation proximity assay (SPA) quantifying covalent modification of KRASG12C
- measurement_setup: competition with radiolabeled covalent probe (Compound B/Compound A), 2 hours incubation, 10 nM KRasG12C
pIC50: −log10 of the molar value.
readout_name: pIC50

Previously resolved entries follow.
1) C=CC(=O)N1CC2(CC(n3nc(N4CCC5(CN(C)CCO5)CC4(C)C)c(-c4c(Cl)c(C)cc5[nH]ncc45)c3C)C2)C1 (single isomer, unassigned) [Example 208b]: 5.42
2) C=CC(=O)N1CC2(CC(n3nc(N4CC[C@H](N(C)C(C)=O)CC4(C)C)c(-c4c(Cl)c(C)cc5[nH]ncc45)c3C)C2)C1 (single isomer, unassigned) [Example 70b]: 6.00
3) C=CC(=O)N1CC2(CC(n3nc(N4CC[C@@H](CN5CCN(S(C)(=O)=O)CC5)CC4(C)C)c(-c4c(Cl)c(Cl)cc5[nH]ncc45)c3C)C2)C1 (single isomer, unassigned) [Example 298b]: 7.57
4) C=CC(=O)N1CC2(CC(n3nc(N4Cc5cnn(C)c5C4)c(-c4c(Cl)c(C)cc5[nH]ncc45)c3C)C2)C1: 5.85
5) C=CC(=O)N1CC2(CC(n3nc(N4CCN(CC(C)(C)O)C[C@]4(C)CC)c(-c4c(Cl)c(C)cc5[nH]ncc45)c3C)C2)C1 (single isomer, unassigned) [Example 161a]: 6.04

a. C=CC(=O)N1CC2(CC(n3nc(N4CCN(C5COC5)C[C@]4(C)CC)c(-c4c(Cl)c(Cl)cc5[nH]ncc45)c3C)C2)C1 (single isomer, unassigned) [Example 155b]
b. C=CC(=O)N1CC2(CC(n3nc(N4CCC(CN5C[C@@H]6C[C@H]5CO6)CC4(C)C)c(-c4c(Cl)c(Cl)cc5[nH]ncc45)c3C)C2)C1 (single isomer, unassigned) [Example 217b]
c. C=CC(=O)N1CC2(CC(n3nc(N4CCN(C[C@@H]5COCCO5)C[C@]4(C)COC)c(-c4c(Cl)c(C)cc5[nH]nc(N)c45)c3C)C2)C1 (single isomer, unassigned) [Example 118b]
d. C=CC(=O)N1CC2(CC(n3nc(N4CCC(n5ccnc5)CC4(C)C)c(-c4c(Cl)c(C)cc5[nH]ncc45)c3C)C2)C1 (single isomer, unassigned) [Example 45a]
e. C=CC(=O)N1CC2(CC(n3nc(N4CC[C@@H](CN5C[C@@H]6C[C@H]5CS6(=O)=O)CC4(C)C)c(-c4c(Cl)c(Cl)cc5[nH]ncc45)c3C)C2)C1 (single isomer, unassigned) [Example 249b]
In: # rank by pIC50, ascending (min first) Answer by naming the labels in the order asked.
Out: c, d, e, b, a
(c: 6.09, d: 6.44, e: 7.89, b: 8.10, a: 8.30)

* * *

- assay_target: KRasG12C (M1-K169, biotinylated on the N-terminus) (Homo sapiens (Human), UniProt P01116, G12C)
- test_details: Covalent competition assay: scintillation proximity assay (SPA) quantifying covalent modification of KRASG12C
- measurement_setup: competition with radiolabeled covalent probe (Compound B/Compound A), 2 hours incubation, 10 nM KRasG12C
readout_name: IC50 (nM)

Here is how some compounds turned out for IC50.
1) C=CC(=O)N1CC2(CC(n3nc(N4CCN(C(C)=O)CC4(C)C)c(-c4cc(O)cc5ccccc45)c3C)C2)C1: 1200
2) C=CC(=O)N1CC2(CC(n3nc(N4CCC(N(C)C5COC5)CC45CCC5)c(-c4c(Cl)c(C)cc5[nH]ncc45)c3C)C2)C1 (single isomer, unassigned) [Example 51b]: 668
3) C=CC(=O)N1CC2(CC(n3nc(N4CCN(C5CCOCC5)C[C@@]4(C)C(F)F)c(-c4c(Cl)c(Cl)cc5[nH]ncc45)c3C)C2)C1 (single isomer, unassigned) [Example 106b]: 14

I. C=CC(=O)N1CC2(CC(n3nc(N4CCN(C5COC5)CC45CCC5)c(-c4c(C)c(Cl)cc5[nH]ncc45)c3C)C2)C1 (single isomer, unassigned) [Example 79b]
II. C=CC(=O)N1CC2(CC(n3nc(N4CCN(CCN5CCOCC5=O)C[C@]4(C)CC)c(-c4c(Cl)c(C)cc5[nH]ncc45)c3C)C2)C1 (single isomer, unassigned) [Example 177b]
In: Between I and II , which one shows the smaller IC50 number? Please respond with the label that marks your chosen entry.
Out: I

Source: patent US20240317721A1
